- ASSAY TARGET: recombinant full length HPK-1 enzyme (Homo sapiens (Human), UniProt Q92918)
- Sequence (Q92918 whole entry, species assumed): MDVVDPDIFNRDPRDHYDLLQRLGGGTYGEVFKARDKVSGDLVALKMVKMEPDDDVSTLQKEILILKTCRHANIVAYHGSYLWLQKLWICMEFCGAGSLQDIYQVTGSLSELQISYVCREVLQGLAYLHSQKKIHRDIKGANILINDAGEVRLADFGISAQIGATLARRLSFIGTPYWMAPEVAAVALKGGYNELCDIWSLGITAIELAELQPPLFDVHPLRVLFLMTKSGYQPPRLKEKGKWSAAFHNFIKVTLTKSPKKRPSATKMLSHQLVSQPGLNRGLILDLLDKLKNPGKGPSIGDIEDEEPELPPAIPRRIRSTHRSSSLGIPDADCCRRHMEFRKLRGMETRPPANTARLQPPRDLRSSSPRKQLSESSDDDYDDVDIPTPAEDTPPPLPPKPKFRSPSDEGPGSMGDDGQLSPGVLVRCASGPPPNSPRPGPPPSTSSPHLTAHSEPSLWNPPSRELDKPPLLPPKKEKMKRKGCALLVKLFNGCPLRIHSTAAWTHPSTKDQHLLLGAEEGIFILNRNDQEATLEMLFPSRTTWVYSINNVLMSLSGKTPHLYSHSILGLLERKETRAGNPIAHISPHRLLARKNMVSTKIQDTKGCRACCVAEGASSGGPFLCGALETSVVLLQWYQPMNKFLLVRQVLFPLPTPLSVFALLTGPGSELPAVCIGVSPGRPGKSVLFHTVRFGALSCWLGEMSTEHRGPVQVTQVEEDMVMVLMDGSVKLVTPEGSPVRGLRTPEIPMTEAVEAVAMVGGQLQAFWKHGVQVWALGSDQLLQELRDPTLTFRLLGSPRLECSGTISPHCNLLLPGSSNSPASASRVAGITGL
- TEST DETAILS: HPK-1 biochemical enzyme assay (ADP-Glo kinase inhibition)
- CONDITIONS: recombinant full length HPK-1 6.8 nM, 10 μM ATP, 12.5 μM MBP, 30 mins at 25° C.
QUANTITY: IC50

Cc1c(Nc2cc[nH]c(=O)c2C(=O)Nc2ccc(N3CCN(C(=O)N4CCC4)CC3)cc2)cnc2c1NCCO2
≤ 10 nM

IC50 for CO[C@@H](C)C(=O)N1CCN(c2ccc(NC(=O)c3c(Nc4cnc5c(c4C)NCCO5)cc[nH]c3=O)cc2)CC1 ?
≤ 10 nM

What value of IC50 has been reported for the following compound? Cc1c(Nc2cc[nH]c(=O)c2C(=O)Nc2ccc(N3CCN(C(=O)N4CC(C)(C)C4)CC3)cc2)cnc2c1NCCO2
≤ 10 nM

Reported IC50 for Cc1c(Nc2cc[nH]c(=O)c2C(=O)Nc2ccc(N3CCN(C(=O)C4(C)CCC4)CC3)cc2)cnc2c1NCCO2 : what is it?
≤ 10 nM

Consider the compound COCC(=O)N1CCN(c2ccc(NC(=O)c3c(Nc4cnc5c(c4C)NCCO5)cc[nH]c3=O)cc2)CC1 and give its measured IC50.
≤ 10 nM

Using the record for CCn1nccc1-c1ccc(NC(=O)c2c(Nc3cnc4c(c3C)NCCO4)cc[nH]c2=O)cc1 , report its IC50.
10 to 100 nM

Endpoint output: IC50 of CN1CCN(c2ccc(NC(=O)c3c(Nc4cnc5c(c4)N(C)CCO5)cc[nH]c3=O)cc2)CC1 . Value?
10 to 100 nM

Recorded IC50 of Cc1c(Nc2cc[nH]c(=O)c2C(=O)Nc2ccc(N3CCN(C)CC3)c(-n3cnnc3)c2)cnc2c1NCCO2 , please.
10 to 100 nM

* * *

The following compounds are listed with their measured IC50 values.
- ASSAY TARGET: recombinant full length HPK-1 enzyme (Homo sapiens (Human))
- TEST DETAILS: HPK-1 biochemical enzyme assay (ADP-Glo kinase inhibition)
- CONDITIONS: recombinant full length HPK-1 6.8 nM, 10 μM ATP, 12.5 μM MBP, 30 mins at 25° C.

These solved cases illustrate the format of a correct answer.
Cc1c(Nc2cc[nH]c(=O)c2C(=O)Nc2ccc(N3CCN(C(C)C)CC3)cc2)cnc2c1NCC(C)O2 (stereo not drawn) [Example 169]
≤ 10 nM
Cc1c(Nc2cc[nH]c(=O)c2C(=O)Nc2ccc(N3CCN(CC4CCC(=O)N4)CC3)cc2)cnc2c1NCCO2 (stereo not drawn)
≤ 10 nM
CCC(=O)N1CCN(c2ccc(NC(=O)c3c(Nc4cnc5c(c4C)NCCO5)cc[nH]c3=O)cc2)CC1
≤ 10 nM
CCOCCN1CCN(c2ccc(NC(=O)c3c(Nc4cnc5c(c4C)NCCO5)cc[nH]c3=O)cc2)CC1
10 to 100 nM
Cc1c(Nc2cc[nH]c(=O)c2C(=O)Nc2ccc(N3CCN(C(=O)N4CC5(CCC5)C4)CC3)cc2)cnc2c1NCCO2
≤ 10 nM

Quick one: IC50 of Cc1c(Nc2cc[nH]c(=O)c2C(=O)Nc2ccc(C(N)=O)cc2)cnc2c1NCCO2 ?
10 to 100 nM

Which IC50 is reported for this compound? CCCN1CCN(c2ccc(NC(=O)c3c(Nc4cnc5c(c4C)NCCO5)cc[nH]c3=O)cc2)CC1
≤ 10 nM

What value of IC50 has been recorded for this entry: Cc1c(Nc2cc[nH]c(=O)c2C(=O)Nc2ccc(N3CCN(C(=O)C(C)C)[C@H](C)C3)cc2)cnc2c1NCCO2
≤ 10 nM

Suppose we examine the compound CN1CCN(c2ccc(NC(=O)c3c(Nc4cnc5c(c4)NCCO5)cc[nH]c3=O)cc2)CC1 ; what IC50 value has been reported?
10 to 100 nM

Give the measured IC50 of Cc1nc2ccc(NC(=O)c3c(Nc4cnc5c(c4C)NCCO5)cc[nH]c3=O)cc2s1 .
10 to 100 nM

Item Cc1c(Nc2cc[nH]c(=O)c2C(=O)Nc2ccc(N3CCN(C)CC3)c(N)c2)cnc2c1NCC(C)O2 (stereo not drawn) has what recorded IC50?
≤ 10 nM
